Recorded IC50 values (Casein kinase I isoform epsilon (Homo sapiens, UniProt P49674)) are given below.

The value of IC50 recorded for O=C1NC(NC2CCCCCC2)=N/C1=C\c1ccc2scnc2c1 when tested on Casein kinase I isoform epsilon (Homo sapiens, UniProt P49674) reads > 10 µM

Entry O=C1NC(NC23CC4CC(CC(C4)C2)C3)=N/C1=C\c1ccc2c(c1)OCO2 , Casein kinase I isoform epsilon (Homo sapiens, UniProt P49674) data, IC50 value: > 10 µM

Entry O=C1NC(NC2CC23CCCCC3)=N/C1=C\c1ccc2ncsc2c1 (stereo unspecified) : IC50 on Casein kinase I isoform epsilon (Homo sapiens, UniProt P49674) = > 10 µM

The value of IC50 recorded for Cc1nc2ccc(/C=C3\N=C(NC4CCCCCC4)NC3=O)cc2s1 when tested on Casein kinase I isoform epsilon (Homo sapiens, UniProt P49674) reads > 10 µM

Field IC50 (system: Casein kinase I isoform epsilon (Homo sapiens, UniProt P49674)) for entry CC(C)C[C@H](CF)NC1=N/C(=C\c2ccc3ncsc3c2)C(=O)N1 = > 10 µM

Sample O=C1NC(NCc2cccnc2)=N/C1=C\c1ccc2ncsc2c1 , system: Casein kinase I isoform epsilon (Homo sapiens, UniProt P49674). Its IC50 is > 10 µM
